Items are presented alongside their recorded GI50.
experimental-protocol: Cytotoxicity against Homo sapiens (human) breast cancer cells after 48 hr by SRB assay
Format: functional
condition-info: Cancer cell lines
The answer is to be given in µM; state only the numeric part.

Known results for molecules:
| molecule | unit-annotation | reading |
| --- | --- | --- |
| COc1ccc(OC)c(-c2cc(-c3ccc(Cl)cc3)nn2-c2ccccc2)c1 | µM | 17.7 |
| Oc1ccc(O)c(-c2cc(-c3ccc(Cl)cc3)nn2-c2ccccc2)c1 | µM | 9.25 |
| NS(=O)(=O)c1ccc(-n2nc(-c3ccccc3)cc2-c2cc(O)ccc2O)cc1 | µM | 83.9 |
| CC(=O)NS(=O)(=O)c1ccc(-n2nc(-c3ccccc3)cc2C2=CC(=O)C=CC2=O)cc1 | µM | 78.5 |
| CC(=O)NS(=O)(=O)c1ccc(-n2nc(-c3ccccc3)cc2-c2cc(O)ccc2O)cc1 | µM | 91.3 |
| O=C1C=CC(=O)C(c2cc(-c3ccc(Cl)cc3)nn2-c2ccccc2)=C1 | µM | 51.5 |
| Cc1ccc(-c2cc(C3=CC(=O)C=CC3=O)n(-c3ccc(S(N)(=O)=O)cc3)n2)cc1 | µM | 51.5 |
| COc1ccc(OC)c(-c2cc(-c3ccc(Cl)cc3)nn2-c2ccc(S(=O)(=O)NC(C)=O)cc2)c1 | µM | 25.4 |
| COc1ccc(OC)c(-c2cc(-c3ccccc3)nn2-c2ccc(S(=O)(=O)NC(C)=O)cc2)c1 | µM | 9.7 |
| Cc1nn(-c2ccc(Br)cc2)c(C)c1CC(=O)c1cc(O)ccc1O | µM | 11.4 |

Data point: COc1ccc(OC)c(-c2cc(-c3ccc(Cl)cc3)nn2-c2ccc(S(N)(=O)=O)cc2)c1 ; GI50 = 11.5

Record O=C(CC1C(=O)NN(c2ccc(Br)cc2)C1=O)c1cc(O)ccc1O (stereo not drawn) , field GI50: 16.1

get_value(item= CC(=O)NS(=O)(=O)c1ccc(-n2nc(-c3ccc(Cl)cc3)cc2-c2cc(O)ccc2O)cc1 , readout=GI50) returns 55.3

Quick note, GI50 for Oc1ccc(O)c(-c2cc(-c3ccccc3)nn2-c2ccccc2)c1 landed at 17.1

// sample COc1ccc(OC)c(-c2cc(-c3ccccc3)nn2-c2ccc(S(N)(=O)=O)cc2)c1 , its GI50 was 12.3

GI50 measured on CC1=NN(c2ccc(Br)cc2)C(=O)C1CC(=O)c1cc(O)ccc1O (stereo not drawn) = 19.1

Data point: NS(=O)(=O)c1ccc(-n2nc(-c3ccc(Cl)cc3)cc2-c2cc(O)ccc2O)cc1 ; GI50 = 16.7

Record summary for NS(=O)(=O)c1ccc(-n2nc(-c3ccc(Cl)cc3)cc2C2=CC(=O)C=CC2=O)cc1 : reported GI50 = 21.9

---

experimental-protocol: Cytotoxicity against Homo sapiens (human) breast cancer cells after 48 hr by SRB assay
Type: functional
condition-info: Cancer cell lines, pooled result: one value given for 9 cell lines, strains, targets or settings
The following molecules are listed with their measured LC50 (concentration giving 50% net cell kill) values.
Use µM as the unit, but write only the number.

| molecule | reading |
| --- | --- |
| COc1ccc(OC)c(-c2cc(-c3ccc(Cl)cc3)nn2-c2ccc(S(=O)(=O)NC(C)=O)cc2)c1 | 79.2 |

Lab note: COc1ccc(OC)c(-c2cc(-c3ccccc3)nn2-c2ccc(S(=O)(=O)NC(C)=O)cc2)c1 gave LC50 (concentration giving 50% net cell kill) of 77.1

molecule NS(=O)(=O)c1ccc(-n2nc(-c3ccc(Cl)cc3)cc2-c2cc(O)ccc2O)cc1 , LC50 (concentration giving 50% net cell kill) observed: 76.6

Reported LC50 (concentration giving 50% net cell kill) for O=C(CC1C(=O)NN(c2ccc(Br)cc2)C1=O)c1cc(O)ccc1O (stereo not drawn) was 49.9

Entry CC(=O)NS(=O)(=O)c1ccc(-n2nc(-c3ccccc3)cc2C2=CC(=O)C=CC2=O)cc1 ; LC50 (concentration giving 50% net cell kill) = 100

// NS(=O)(=O)c1ccc(-n2nc(-c3ccc(Cl)cc3)cc2C2=CC(=O)C=CC2=O)cc1 : LC50 (concentration giving 50% net cell kill) value = 92.3

---

experimental-protocol: Cytotoxicity against Homo sapiens (human) ovarian cancer cells after 48 hr by SRB assay
Type: functional
condition-info: Cancer cell lines
measurement-kind: TGI (µM)
// note: answer is a bare numeric in µM

Examples with their reported TGI follow.
| compound | TGI / µM |
| --- | --- |
| CC(=O)NS(=O)(=O)c1ccc(-n2nc(-c3ccccc3)cc2-c2cc(O)ccc2O)cc1 | 100 |
| COc1ccc(OC)c(-c2cc(-c3ccc(Cl)cc3)nn2-c2ccccc2)c1 | 85.2 |
| O=C(CC1C(=O)NN(c2ccc(Br)cc2)C1=O)c1cc(O)ccc1O (stereo not drawn) | 44.3 |
| COc1ccc(OC)c(-c2cc(-c3ccccc3)nn2-c2ccc(S(N)(=O)=O)cc2)c1 | 43.7 |
| NS(=O)(=O)c1ccc(-n2nc(-c3ccccc3)cc2-c2cc(O)ccc2O)cc1 | 98.2 |

NS(=O)(=O)c1ccc(-n2nc(-c3ccc(Cl)cc3)cc2C2=CC(=O)C=CC2=O)cc1 has a reported TGI of 65.7

Note to self: TGI recorded for NS(=O)(=O)c1ccc(-n2nc(-c3ccc(Cl)cc3)cc2-c2cc(O)ccc2O)cc1 was 50.9

Just so you know, measured TGI for Cc1nn(-c2ccc(Br)cc2)c(C)c1CC(=O)c1cc(O)ccc1O came out at 42.4

---

experimental-protocol: Cytotoxicity against Homo sapiens (human) melanoma cellsafter 48 hr by SRB assay
Assay type: functional
condition-info: Melanoma cell
Quick reference: GI50 of the listed items.
# number only, unit µM dropped from output

Worked set:
| smiles-entry | GI50 / µM |
| --- | --- |
| COc1ccc(OC)c(-c2cc(-c3ccccc3)nn2-c2ccc(S(=O)(=O)NC(C)=O)cc2)c1 | 15.4 |
| O=C1C=CC(=O)C(c2cc(-c3ccc(Cl)cc3)nn2-c2ccccc2)=C1 | 69.4 |
| COc1ccc(OC)c(-c2cc(-c3ccc(Cl)cc3)nn2-c2ccc(S(N)(=O)=O)cc2)c1 | 12.8 |
| Cc1nn(-c2ccc(Br)cc2)c(C)c1CC(=O)c1cc(O)ccc1O | 13.1 |

What the record says about NS(=O)(=O)c1ccc(-n2nc(-c3ccc(Cl)cc3)cc2C2=CC(=O)C=CC2=O)cc1 : GI50 is 26.7

---

experimental-protocol: Cytotoxicity against Homo sapiens (human) CNS cancer cells after 48 hr by SRB assay
Type: functional
condition-info: Cancer cell lines
// boundary case: GI50 equal to 20 µM maps to Not fulfilled; strictly smaller maps to Fulfilled

Some entries whose results are on file:
| molecule | group |
| --- | --- |
| O=C1C=CC(=O)C(c2cc(-c3ccc(Cl)cc3)nn2-c2ccccc2)=C1 | Not fulfilled |
| Oc1ccc(O)c(-c2cc(-c3ccccc3)nn2-c2ccccc2)c1 | Fulfilled |
| Oc1ccc(O)c(-c2cc(-c3ccc(Cl)cc3)nn2-c2ccccc2)c1 | Fulfilled |
| NS(=O)(=O)c1ccc(-n2nc(-c3ccc(Cl)cc3)cc2-c2cc(O)ccc2O)cc1 | Fulfilled |

API: the following record is the query input.
Challenge: GI50 strictly < 20 µM for this molecule? CC(=O)NS(=O)(=O)c1ccc(-n2nc(-c3ccccc3)cc2C2=CC(=O)C=CC2=O)cc1
Response given: Not fulfilled

---

experimental-protocol: Cytotoxicity against Homo sapiens (human) melanoma cellsafter 48 hr by SRB assay
Type: functional
condition-info: Melanoma cell
# note: exactly 20 µM is not below, so it is not fulfilled; use fulfilled for GI50 strictly under it

These solved cases illustrate the format of a correct answer.
| compound | group |
| --- | --- |
| Cc1ccc(-c2cc(C3=CC(=O)C=CC3=O)n(-c3ccc(S(N)(=O)=O)cc3)n2)cc1 | not fulfilled |
| CC(=O)NS(=O)(=O)c1ccc(-n2nc(-c3ccccc3)cc2C2=CC(=O)C=CC2=O)cc1 | not fulfilled |
| Oc1ccc(O)c(-c2cc(-c3ccccc3)nn2-c2ccccc2)c1 | not fulfilled |

Challenge: I'd appreciate it if you could check whether CC(=O)NS(=O)(=O)c1ccc(-n2nc(-c3ccccc3)cc2-c2cc(O)ccc2O)cc1 has GI50 smaller than 20 µM.
Response given: not fulfilled

Challenge: Strictly below 20 µM: is that where GI50 of NS(=O)(=O)c1ccc(-n2nc(-c3ccccc3)cc2-c2cc(O)ccc2O)cc1 sits?
Response given: not fulfilled

---

experimental-protocol: Cytotoxicity against Homo sapiens (human) renal cancer cells after 48 hr by SRB assay
Format: functional
condition-info: Cancer cell lines
measurement-kind: GI50 (µM)
Express it in µM; write the number only.

| compound | GI50, µM |
| --- | --- |
| CC(=O)NS(=O)(=O)c1ccc(-n2nc(-c3ccccc3)cc2-c2cc(O)ccc2O)cc1 | 78.1 |
| CC(=O)NS(=O)(=O)c1ccc(-n2nc(-c3ccccc3)cc2C2=CC(=O)C=CC2=O)cc1 | 90 |

Entry COc1ccc(OC)c(-c2cc(-c3ccc(Cl)cc3)nn2-c2ccccc2)c1 — recorded GI50 = 34.9

For reference, reported GI50 for Cc1nn(-c2ccc(Br)cc2)c(C)c1CC(=O)c1cc(O)ccc1O stands at 12

Note to self: GI50 recorded for COc1ccc(OC)c(-c2cc(-c3ccccc3)nn2-c2ccc(S(N)(=O)=O)cc2)c1 was 13

Record O=C(CC1C(=O)NN(c2ccc(Br)cc2)C1=O)c1cc(O)ccc1O (stereo not drawn) . Reported GI50: 23.7

For reference, reported GI50 for Cc1ccc(-c2cc(C3=CC(=O)C=CC3=O)n(-c3ccc(S(N)(=O)=O)cc3)n2)cc1 stands at 55.6

The compound listed as COc1ccc(OC)c(-c2cc(-c3ccc(Cl)cc3)nn2-c2ccc(S(=O)(=O)NC(C)=O)cc2)c1 has a reported GI50 of 17.7

Looking up Oc1ccc(O)c(-c2cc(-c3ccccc3)nn2-c2ccccc2)c1 , I see its GI50 listed as 22.6

COc1ccc(OC)c(-c2cc(-c3ccccc3)nn2-c2ccc(S(=O)(=O)NC(C)=O)cc2)c1 has a reported GI50 of 13.3

Field GI50 (entry NS(=O)(=O)c1ccc(-n2nc(-c3ccc(Cl)cc3)cc2C2=CC(=O)C=CC2=O)cc1 ) reads 23.1

Summary for this compound, Oc1ccc(O)c(-c2cc(-c3ccc(Cl)cc3)nn2-c2ccccc2)c1 : GI50 is 8.86

Short answer for NS(=O)(=O)c1ccc(-n2nc(-c3ccccc3)cc2-c2cc(O)ccc2O)cc1 : GI50 was 88.1

The value of GI50 measured for the compound CC(=O)NS(=O)(=O)c1ccc(-n2nc(-c3ccc(Cl)cc3)cc2-c2cc(O)ccc2O)cc1 turned out to be 23.5

Noted for CC1=NN(c2ccc(Br)cc2)C(=O)C1CC(=O)c1cc(O)ccc1O (stereo not drawn) : its GI50 reads 39.8

Notebook: NS(=O)(=O)c1ccc(-n2nc(-c3ccc(Cl)cc3)cc2-c2cc(O)ccc2O)cc1 , GI50 read as 12

The reported value for COc1ccc(OC)c(-c2cc(-c3ccc(Cl)cc3)nn2-c2ccc(S(N)(=O)=O)cc2)c1 in terms of GI50 is 13.5

Looking up O=C1C=CC(=O)C(c2cc(-c3ccc(Cl)cc3)nn2-c2ccccc2)=C1 , I found its GI50 recorded as 55.6
